Test system: OVCAR-8 ovarian
Assay: NCI-60 one-dose screen, 48 h
Conditions: 10 µM unless noted
This is part of a sample that, as a whole, favours compounds with a hit. Of some 83,000 tested, about 20% had one in any assay. Activity calls are given as the source filed them. Rule for the calls: active = growth percent below 10; inactive = the rest.
Assign a class; possible classes are T = active, F = inactive

{"Compound": "COC(=O)C(=[N+]=[N-])C(=O)OC", "Study System": "OVCAR-8 ovarian", "Group Label": "F"}

Given Nc1ccc([N+](=O)[O-])c2c1Oc1ccccc1O2 , state the outcome it received in this test.
F

Given ClCCN(CCCl)C(c1ccccc1)c1ccc(Cl)cc1 (stereo unspecified) , state the outcome it received in this test.
F

Given CC1(C)N=C(N)N=C(N)N1c1ccc(CCCCc2ccc(Cl)cc2S(=O)(=O)F)c(Cl)c1 , state the outcome it received in this test.
F

* * *

Tested on: HL-60(TB) leukemia
Assay: NCI-60 one-dose screen, 48 h (100 = growth as untreated, 0 = no growth, -100 = all killed)
Conditions: 10 µM unless noted
About 83,000 compounds went through this panel and 20% of them were active in at least one assay; those are over-represented in the sample as a whole.
Item-by-item account of growth
Dear colleague, please return just the value in %, with no unit written.

{"Compound": "CCC(C)(C)O", "Study System": "HL-60(TB) leukemia", "growth [%]": 86.4}
{"Compound": "CN1c2ccccc2S(=O)(=O)n2c(SCC(=O)Nc3nc4ccc(F)cc4s3)nnc21", "Study System": "HL-60(TB) leukemia", "growth [%]": 105}
{"Compound": "O=[N+]([O-])c1cnc(Sc2ccncn2)s1", "Study System": "HL-60(TB) leukemia", "growth [%]": -20.2}
{"Compound": "C#CCOC(=O)/C=C/c1cn(-c2ccccc2)nc1-c1ccc(OC)cc1", "Study System": "HL-60(TB) leukemia", "growth [%]": 110}
{"Compound": "C=C1C(=O)O[C@H]2[C@H]1CC/C(Cn1cc(CNC(=O)Cc3cn(C(=O)c4ccc(Cl)cc4)c4ccc(OC)cc34)nn1)=C\\CC[C@@]1(C)O[C@@H]21", "Study System": "HL-60(TB) leukemia", "growth [%]": -53.4}
{"Compound": "N#C/C(=C\\c1ccc2c(c1)OCO2)c1ccccc1", "Study System": "HL-60(TB) leukemia", "growth [%]": 62}
{"Compound": "CC(C)(C)c1nn(-c2ccccc2)c2c1CC1(CN2Cc2ccc3c(c2)OCO3)C(=O)c2ccccc2C1=O", "Study System": "HL-60(TB) leukemia", "growth [%]": 102}
{"Compound": "CC(C)(C)c1ccc2oc(=O)n(SC(Cl)(Cl)Cl)c2c1", "Study System": "HL-60(TB) leukemia", "growth [%]": 70.2}
{"Compound": "O=c1[nH]c(=O)n(C2CC(O)C(CO)O2)cc1CO (configuration not stated)", "Study System": "HL-60(TB) leukemia", "growth [%]": 107}
{"Compound": "CCN(CC)CC(O)c1cc(-c2ccc(Cl)cc2)nc2cc(Cl)ccc12 (configuration not stated)", "Study System": "HL-60(TB) leukemia", "growth [%]": 17.9}

Return the recorded growth value; entry: COc1ccc2nc3ccccc3c(NCc3ccccc3)c2c1
8.18

Return the recorded growth value; entry: N#Cc1c(N)nc(Cl)c(C#N)c1C(=O)c1ccccc1
6.29

Return the recorded growth value; entry: CN1C(=O)N(C)C2C1NN=c1s/c(=C\c3ccsc3)c(=O)n12 (configuration not stated)
5.85

Return the recorded growth value; entry: O=C(c1c[nH]c2ccccc12)c1n[nH]c(=S)n1-c1ccc([N+](=O)[O-])cc1
61.4

Return the recorded growth value; entry: Clc1ccc(I)c2ccccc12
98.1

Return the recorded growth value; entry: COc1ccc(/C(=C/c2cc(OC)c(OC)c(OC)c2)[N+](=O)[O-])cc1
-26.4

Return the recorded growth value; entry: Clc1ccc(Nc2ccnc(NCCCNc3ccnc4cc(Cl)ccc34)n2)cc1
-72.3

Return the recorded growth value; entry: CCCCCCN(CCCCCC)CCC(O)c1ccc2ccccc2c1 (configuration not stated)
42.4

Return the recorded growth value; entry: COc1cc(/C=C/C(=O)/C=C(/C=C/c2ccc(OC(C)=O)c(OC)c2)OB(F)F)ccc1OC(C)=O
4.04

Return the recorded growth value; entry: CC(CN(C)C)Oc1ccccc1NC1=C(Cl)C(=O)C(Nc2ccccc2OC(C)CN(C)C)=C(Cl)C1=O (configuration not stated)
-41.8

Return the recorded growth value; entry: O=C(c1ccccc1)N(C(=S)NCCc1ccc(Cl)cc1)c1ccccc1
54.4

* * *

Test system: HL-60(TB) leukemia
Assay: NCI-60 one-dose screen, 48 h (100 = growth as untreated, 0 = no growth, -100 = all killed)
Details: 10 µM unless noted
About 83,000 compounds went through this panel and 20% of them were active in at least one assay; those are over-represented in the sample as a whole.
Parameter Measured: growth (%)
Dear colleague, please return just the value in %, with no unit written.

{"Compound": "O=C1C[C@H](c2ccccc2)[C@H](c2ccccc2)C1", "Quantitative Readout": 88.1}
{"Compound": "CCCCCCCCC(=O)OCCCC(CCC(CCC1CCCO1)OC(=O)CCCCCCCC)OC(=O)CCCCCCCC (centres undefined)", "Quantitative Readout": 89}
{"Compound": "Fc1ccc(COc2ccc(Nc3ncnc4sc5c(c34)CCCC5)cc2)cc1", "Quantitative Readout": 87.4}

Please turn your attention to the following entry.
Return the recorded growth value; entry: O=C1OC(c2ccc(-c3ccccc3)cc2)=C/C1=C/C=C/c1ccccc1
90.5

* * *

Test system: UACC-62 melanoma
Test: NCI-60 one-dose screen, 48 h (100 = growth as untreated, 0 = no growth, -100 = all killed)
Conditions: 10 µM unless noted
This is part of a sample that, as a whole, favours compounds with a hit. Of some 83,000 tested, about 20% had one in any assay. Activity calls are given as the source filed them. The calls were made as follows: active = growth percent below 10; inactive = the rest.
Item-by-item account of growth

Below, each entry is followed by its recorded growth result.
{"Molecule": "CC(C)CCC1(CCO)C(=O)NC(=S)NC1=O", "Result": "97.3% (inactive)"}
{"Molecule": "CC(C)(NC(=O)c1nn(CCCCCF)c2ccccc12)c1ccccc1", "Result": "75.4% (inactive)"}
{"Molecule": "Oc1ccc(O)c2c1C1(Cl)C(Cl)=C(Cl)C2(Cl)C1(Cl)Cl", "Result": "37.1% (inactive)"}
{"Molecule": "C#CC1(O)CCC2(C)C(CCC3C4CCC(=O)C4(C)CCC32)C1 (stereo unspecified)", "Result": "88.7% (inactive)"}
{"Molecule": "CCCCn1cc(C(=O)/C(C#N)=C/c2cc3ccccc3nc2Cl)c2cc(OC)ccc21", "Result": "81.4% (inactive)"}
{"Molecule": "CN1C(=O)NC(=O)C(N=Nc2ccc(Cl)cc2)C1=O (stereo unspecified)", "Result": "49.9% (inactive)"}
{"Molecule": "COc1cc(C2CC(=O)Nc3nc(N)[se]c32)c(OC)c2c1OCO2 (stereo unspecified)", "Result": "99.3% (inactive)"}
{"Molecule": "CCCCCN(CCCCC)CC(O)c1ccc(C)c(Cl)c1 (stereo unspecified)", "Result": "90.5% (inactive)"}

Return the recorded growth value; entry: O=C(O)C1(Br)CC12c1ccccc1-c1ccccc12 (stereo unspecified)
103% (inactive)

Return the recorded growth value; entry: COc1ccc2c(c1)NC1=C(C(=O)OC1)C2c1cc(OC)c(OC)c(OC)c1 (stereo unspecified)
44.7% (inactive)

Return the recorded growth value; entry: CCC(/C=C(C)/C=C/C(=O)c1c(O)c(-c2ccc(O)cc2)c[nH]c1=O)CO (stereo unspecified)
99.8% (inactive)

Return the recorded growth value; entry: C=CC(=O)NC(O)C(Cl)(Cl)Cl (stereo unspecified)
101% (inactive)

Return the recorded growth value; entry: O=S(=O)(Cl)c1ccccc1 (tested in a mixture with another compound)
106% (inactive)

* * *

System: UO-31 renal
Assay: NCI-60 one-dose screen, 48 h (100 = growth as untreated, 0 = no growth, -100 = all killed)
Settings: 10 µM unless noted
Compounds without any hit were thinned out: in the full panel of roughly 83,000, 20% have a hit.
Item-by-item account of growth
Dear colleague, please return just the value in %, with no unit written.

Below, each entry is followed by its recorded growth result.
{"Compound": "CC(C)[C@]12O[C@H]1[C@@H]1O[C@]13[C@]1(O[C@H]1C[C@H]1C4=C(CC[C@@]13C)C(=O)OC4)[C@@H]2OC(=O)OC(C)(C)C", "growth, %": 1.21}
{"Compound": "COc1ccc(OC)c(/C=C(/C)[N+](=O)[O-])c1", "growth, %": -46.3}

Return the recorded growth value; entry: COc1cc(N(CCCl)CCCl)ccc1C=Nc1ccccc1C(=O)O
78.5

Return the recorded growth value; entry: CC(C)C1c2ccc(O)cc2Oc2nc(N)c(C#N)c(N)c21 (stereo unspecified)
89.2

Return the recorded growth value; entry: OC1(c2ccc(Cl)cc2Cl)c2ccccc2C2=NCCN21 (stereo unspecified)
82.1
